# Target Desc: human IDO1 (Homo sapiens)
# Sequence (P14902 whole entry): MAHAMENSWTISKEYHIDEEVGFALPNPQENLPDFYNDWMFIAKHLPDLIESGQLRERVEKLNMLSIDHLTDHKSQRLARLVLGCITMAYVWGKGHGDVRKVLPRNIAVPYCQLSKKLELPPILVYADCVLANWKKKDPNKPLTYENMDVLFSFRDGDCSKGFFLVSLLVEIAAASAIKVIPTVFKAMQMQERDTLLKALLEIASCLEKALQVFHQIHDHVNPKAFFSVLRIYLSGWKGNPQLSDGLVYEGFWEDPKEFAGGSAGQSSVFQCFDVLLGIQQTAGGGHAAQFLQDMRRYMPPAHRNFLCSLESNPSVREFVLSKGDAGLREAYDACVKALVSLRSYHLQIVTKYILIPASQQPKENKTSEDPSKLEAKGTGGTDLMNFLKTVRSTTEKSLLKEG
# Measurement Notes: Assessment of human IDO-1 inhibitory activity in Hela cells (Interferon-gamma stimulated HeLa cells, Ehrlich reagent, absorbance 490 nm)
# Format: cell-based
# Design: endogenous in cells; host or cells: HeLa cells stimulated with interferon-gamma
# Condition Parameters: Hela Human IDO-1 cellular assay
Value Kind: IC50

* CCC(CC(=O)O)c1ccc(N(CC)C2CCS(=O)(=O)CC2)c(Nc2ccc(C#N)cc2)c1 (single isomer, unassigned) [Example 335] | < 0.05 µM
* CCOc1ncc(Nc2cc(C(CC)CC(C)(C)O)ccc2N2CCC(c3ccccc3)CC2)cn1 (single isomer, unassigned) [Example 1349] | > 0.05 µM
* CCC(CC(=O)O)c1ccc(N2C[C@@H]3C[C@H]2CN3C(=O)OC(C)(C)C)c(Nc2ccc(C#N)cc2)c1 (single isomer, unassigned) [Example 443 Diastereomer 1] | < 0.005 µM
* CCC(CC(=O)O)c1ccc(N(C)C2CCOCC2)c(Nc2ccc(C#N)cc2)c1 (single isomer, unassigned) [Example 870] | < 0.005 µM
* CCOc1ncc(Nc2cc([C@H](CC)Cc3cnco3)ccc2N(CC)C2CCOCC2)cn1 [Example 1335] | > 0.05 µM
* CC[C@@H](CC(=O)O)c1ccc(N(CC2CC2)CC(C)(C)O)c(Nc2ccc(F)cc2)c1 (single isomer, unassigned) [Example 269] | < 0.05 µM
* CCOc1cnc(Nc2cc([C@@H](CC)CC(=O)O)ccc2N(CC)C2CCOCC2)cn1 (single isomer, unassigned) [Example 465] | < 0.005 µM
* CCCN(c1ccc([C@H](COC)CC(=O)O)cc1NC(=O)Nc1ccc(Cl)cc1F)C1CCOCC1 (single isomer, unassigned) [Example 576] | < 0.05 µM
* CCN(c1ccc(C2(CC(=O)O)CCOCC2)cc1Nc1ccc(C#N)cc1)C1CCOCC1 [Example 154] | < 0.05 µM
* CC[C@@H](CC(=O)O)c1ccc(N(CC)C2CCOCC2)c(Nc2ccc(C#N)cn2)c1 (single isomer, unassigned) [Example 461] | < 0.005 µM
* CCNC(=O)NC[C@@H](CC)c1ccc(N(CC)C2CCOCC2)c(Nc2cnc(OCC)nc2)c1 [Example 1366] | > 0.05 µM
* CCOc1ncc(Nc2cc([C@H](CC)Cc3ncno3)ccc2N(CC)C2CCOCC2)cn1 [Example 1337] | < 0.05 µM
* CCC(CC(=O)O)c1cc(F)c(N(CC)C2CCOCC2)c(Nc2ccc(C#N)cn2)c1 (single isomer, unassigned) [Example 138] | < 0.005 µM
* CCOc1ncc(Nc2cc(C(CC(=O)O)C3CC3)ccc2N(CC)C2CCOCC2)cn1 (single isomer, unassigned) [Example 36] | < 0.05 µM
